EXPERIMENT NOTES: chemical genetic growth profiling, strain panel (AID 1159580);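 note: tested at 20 µM; growth read once vehicle control cultures reached saturation at 30 °C; 1 = growth at the plate median or of vehicle wells; lower values mean less growth of the strain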
CONDITION LABEL: S. cerevisiae deletion strains, growth OD, locus YKL190W, strain CNB1, hits give low values
Among all 5,500 compounds or so, about 2,000 (36%) were called active. Not shown: some 18% with an inconclusive outcome. Some of the results follow.
Here the recorded normalized growth is given for each entry.
No unit in the answer, please; the number alone is enough.

[
  {
    "COMPOUND": "O=C(O)c1cc2ccccc2[nH]1",
    "normalized growth": 1
  },
  {
    "COMPOUND": "Cc1c(O)c(C(=O)CC(C)C)c2oc3c(C(=O)CC(C)C)c(O)c(C)c(O)c3c2c1O",
    "normalized growth": 1
  },
  {
    "COMPOUND": "CN1CCC(=C2c3ccccc3Sc3ccccc32)CC1",
    "normalized growth": 1
  },
  {
    "COMPOUND": "CC1=C(/C=C/C(C)=C/C=C/C(C)=C/C=C/C=C(C)/C=C/C=C(C)/C=C/C23OC2(C)CC(O)CC3(C)C)C(C)(C)CC(O)C1 (stereo not drawn)",
    "normalized growth": 1.01
  },
  {
    "COMPOUND": "CCC(C)C(OC(C)=O)C(=O)OC1C(O)C2C3(C)C=CC(=O)C(C)(C)C3CC(OC(=O)C(O)C(C)C)C2(C)C23OC2CC(c2ccoc2)C13C (stereo not drawn)",
    "normalized growth": 0.998
  }
]

Item: `CCN(CC)CCNC(=O)c1cc(Br)c(N)cc1OC` | normalized growth: 0.982

The measured normalized growth associated with C=Cc1c2[nH]c(c1C)C=c1[nH]c(c(C)c1C=C)=CC1N=C(C=c3[nH]c(c(C)c3CCC(=O)O)=C2)C(CCC(=O)O)=C1C (stereo not drawn) reads 0.99

The compound listed as `CC(=O)N[C@@H](CC(C)C)C(=O)O` has a reported normalized growth of 0.987

---

EXPERIMENT NOTES: chemical genetic growth profiling, strain panel (AID 1159580);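 note: tested at 20 µM; growth read once vehicle control cultures reached saturation at 30 °C; 1 = growth at the plate median or of vehicle wells; lower values mean less growth of the strain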
CONDITION LABEL: S. cerevisiae deletion strains, growth OD, locus YLR418C, strain cdc73, hits give low values
Out of some 5,500 compounds screened, about 2,000 (36%) were called active. Not shown: some 18% with an inconclusive outcome. The list shows a part of the results.
PARAMETER: normalized growth
Give the figure by itself; no unit, no explanation.

Below: 8 molecules and their reported normalized growth.
[
  {
    "MOLECULE": "NCCSSCCN",
    "normalized growth": 0.999
  },
  {
    "MOLECULE": "CCCCCCCCCCCCCCCC(=O)OC/C=C(C)/C=C/C=C(C)/C=C/C1=C(C)CCCC1(C)C",
    "normalized growth": 0.922
  },
  {
    "MOLECULE": "CCOC(=O)C(C)(C)Oc1ccc(Cl)cc1",
    "normalized growth": 0.985
  },
  {
    "MOLECULE": "COc1cc2c(cc1OC)[C@@H]1C(=O)c3ccc(OC)c(CC=C(C)C)c3O[C@@H]1CO2",
    "normalized growth": 1.01
  },
  {
    "MOLECULE": "C[C@]12CC(=O)C3C(CC[C@@H]4C[C@H](O)CC[C@]34C)C1CC[C@]2(O)C(=O)CO (some centres undefined)",
    "normalized growth": 1.01
  },
  {
    "MOLECULE": "C[C@]12CCC(=O)C=C1CCC1C2CC[C@@]2(C)C1CC[C@@H]2O (some centres undefined)",
    "normalized growth": 1.02
  },
  {
    "MOLECULE": "COc1cc2c(cc1OC)[C@@H]1C(=O)c3ccc4c(c3O[C@@H]1CO2)C=CC(C)(C)O4",
    "normalized growth": 0.962
  },
  {
    "MOLECULE": "CCC(=O)O[C@H]1CCC2C3CCC4=CC(=O)CC[C@]4(C)C3CC[C@@]21C (some centres undefined)",
    "normalized growth": 0.672
  }
]

Sample CC(N)C(=O)OC(C)(C)Cc1ccc(Cl)cc1 (centres undefined) ; normalized growth observed: 0.983

Briefly, normalized growth measured for `CC(C)OC(=O)C(C)(C)Oc1ccc(C(=O)c2ccc(Cl)cc2)cc1` : 0.879

response.value for CC1(C)C(C=C(Cl)Cl)C1C(=O)OC(C#N)c1cccc(Oc2ccccc2)c1 (centres undefined) (field: normalized growth) = 1.05

The molecule listed as `CC(=O)OCC[N+](C)(C)C` shows normalized growth equal to 0.99

For reference, reported normalized growth for COc1cc2c(cc1OC)C1C(=O)c3ccc4c(c3OC1CO2)CCC(C)(C)O4 (centres undefined) stands at 1
